Provide the reported inhibition at 0.3 µM of each item.
- experimental.system: recombinant rat PAI-1 (Rattus norvegicus)
- Sequence (P20961 24-402): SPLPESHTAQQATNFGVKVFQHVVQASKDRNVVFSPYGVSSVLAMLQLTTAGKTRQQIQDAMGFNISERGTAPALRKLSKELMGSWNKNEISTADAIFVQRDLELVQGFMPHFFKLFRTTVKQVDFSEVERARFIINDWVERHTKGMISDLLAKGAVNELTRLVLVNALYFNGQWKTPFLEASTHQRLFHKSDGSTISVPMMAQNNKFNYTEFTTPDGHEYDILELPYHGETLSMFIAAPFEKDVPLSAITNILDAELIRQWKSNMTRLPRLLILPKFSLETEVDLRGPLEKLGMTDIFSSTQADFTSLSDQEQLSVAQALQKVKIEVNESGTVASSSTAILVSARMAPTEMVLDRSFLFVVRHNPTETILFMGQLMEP
- protocol: biochemical
- stated.conditions: read-out: Inhibition Rate of PAI-1 Activity (%)
Respond numerically; units are % and should not be typed.

Please give measured inhibition at 0.3 µM of the following entry: CCCCCOc1ccc(-c2ccc(OC(F)(F)F)cc2)cc1N(Cc1ccc(C(C)(C)C)cc1)C(=O)C(=O)O [Compound 194]
5

Please give measured inhibition at 0.3 µM of the following entry: COc1cc(OC)c(N(Cc2ccc(C(C)(C)C)cc2)C(=O)C(=O)O)cc1-c1ccc(OC(F)(F)F)cc1 [Compound 190]
0

Please give measured inhibition at 0.3 µM of the following entry: CC(C)(C)c1ccc(CN(C(=O)C(=O)O)c2cc(-c3ccc(OC(F)(F)F)cc3)cc(C(F)(F)F)c2)cc1 [Compound 139]
0

Please give measured inhibition at 0.3 µM of the following entry: CC(C)(C)c1ccc(Oc2cc(-c3ccc(OC(F)(F)F)cc3)ccc2OCC(=O)O)cc1 [Compound 112]
0
